Measured IC50 at 10 min accompanies every entry in the list below.
biological target: CYP3A4 (CYP3A) (Homo sapiens, UniProt P08684); assay: CYP3A inhibition assay (midazolam, pooled human liver microsomes); format: in vitro ADME; conditions: human, pooled human liver microsomes, pH 7.4, probe midazolam (printed as about […]); read-out: 3A4 IC50
Sequence (P08684 2-503): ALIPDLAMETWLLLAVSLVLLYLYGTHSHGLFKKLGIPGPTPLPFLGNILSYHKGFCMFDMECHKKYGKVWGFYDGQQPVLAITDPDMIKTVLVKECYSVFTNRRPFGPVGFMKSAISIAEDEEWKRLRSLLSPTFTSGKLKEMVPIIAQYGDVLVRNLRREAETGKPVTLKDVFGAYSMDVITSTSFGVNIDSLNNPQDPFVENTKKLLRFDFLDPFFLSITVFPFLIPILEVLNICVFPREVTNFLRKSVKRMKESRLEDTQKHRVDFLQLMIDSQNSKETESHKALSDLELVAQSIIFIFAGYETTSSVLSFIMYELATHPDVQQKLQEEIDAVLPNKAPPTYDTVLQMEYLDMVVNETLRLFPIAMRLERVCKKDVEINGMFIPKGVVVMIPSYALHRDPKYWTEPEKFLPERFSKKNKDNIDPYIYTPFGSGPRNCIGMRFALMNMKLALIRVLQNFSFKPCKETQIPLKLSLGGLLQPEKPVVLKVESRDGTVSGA
Express the result in nM but write the number alone.

Some solved entries appear below for comparison.
> print(dat)
                                    compound  readout.unit  measured
 1  C=CC[C@H](NC(=O)[C@@H](C)OC)[C@H](O)CN[C@H]1CC2(CCC2)Oc2c(-c3nccs3)cc(CC(C)C)cc21            nM       200
 2  C=CC[C@H](NC(=O)COC)[C@H](O)CN[C@H]1CC2(CCC2)Oc2c1cc(CC(C)(C)C)nc2Nc1ccccc1            nM      3500
 3  CCC[C@H](NC(=O)[C@@H](C)OC)[C@H](O)CN[C@H]1CC2(CCC2)Oc2c1cc(CC(C)(C)C)nc2NC            nM      1500
 4  C=CC[C@H](NC(=O)COC)[C@H](O)CN[C@H]1CC2(CCC2)Oc2c(-c3ccncc3)cc(CC(C)(C)C)cc21            nM       100
 5  C=CC[C@H](NC(=O)COC)[C@H](O)CN[C@H]1CC2(CCC2)Oc2c(-c3ccc4c(c3)OCO4)cc(CC(C)(C)C)cc21            nM      1000
 6  C=CC[C@H](NC(C)=O)[C@H](O)CN[C@H]1CC2(CCC2)Oc2c1cc(CC(C)(C)C)nc2Nc1nccs1            nM      2700
 7  C=CC[C@H](NC(=O)[C@@H](C)OC)[C@H](O)CN[C@H]1CC2(CCC2)Oc2c1cc(CC(C)C)cc2-n1ccnc1            nM       200
 8  CCC[C@H](NC(=O)[C@H]1CCCO1)[C@H](O)CN[C@H]1CC2(CCC2)Oc2c1cc(CC(C)(C)C)nc2NC            nM      1500
 9  C=CC[C@H](NC(=O)COC)[C@H](O)CN[C@H]1CC2(CCC2)Oc2c(Br)cc(CC(C)(C)C)cc21            nM       900
10  C=CC[C@H](NC(=O)CCC(C)(C)C)[C@H](O)CN[C@H]1CC2(CCC2)Oc2ncc(CC(C)(C)C)cc21            nM       300

Give its IC50 at 10 min value. Item: "C=CC[C@H](NC(=O)COC)[C@H](O)CN[C@H]1CC2(CCC2)Oc2c(-c3cccnc3)cc(CC(C)(C)C)cc21"
300

What do we get for "C=CC[C@H](NC(=O)COC)[C@H](O)CN[C@H]1CC2(CCC2)Oc2c(-c3nccs3)cc(CC(C)(C)C)cc21" ?
1000

What do we get for "C=CC[C@H](NC(=O)COC)[C@H](O)CN[C@H]1CC2(CCC2)Oc2c1cc(CC(C)(C)C)nc2Nc1cccnc1" ?
500

What do we get for C=CC[C@H](NC(=O)C1COC(c2cccnc2)O1)[C@H](O)CN[C@H]1CC2(CCC2)Oc2ncc(CC(C)(C)C)cc21 (stereo partly shown) ?
300

What do we get for "C=CC[C@H](NC(=O)COC)[C@H](O)CN[C@H]1CC2(CCC2)Oc2c(-c3cnc[nH]3)cc(CC(C)(C)C)cc21" ?
300

What do we get for "CCOC[C@H](NC(C)=O)[C@@H](O)CN[C@H]1CC2(CCC2)Oc2ncc(CC(C)(C)C)cc21" ?
3700

What do we get for "COC[C@H](NC(C)=O)[C@H](O)CN[C@H]1CC2(CCC2)Oc2ncc(CC(C)(C)C)cc21" ?
27000

What do we get for "C=CC[C@H](NC(=O)[C@@H]1CN(Cc2nccs2)CCO1)[C@H](O)CN[C@H]1CC2(CCC2)Oc2ncc(CC(C)(C)C)cc21" ?
700

What do we get for "CCC[C@H](NC(=O)COC)[C@H](O)CN[C@H]1CC2(CCC2)Oc2c1cc(CC(C)(C)C)nc2NC" ?
5000

What do we get for "C=CC[C@H](NC(=O)COC)[C@H](O)CN[C@H]1CC2(CCC2)Oc2c1cc(CC(C)(C)C)nc2-c1cncn1C" ?
160

What do we get for "C=CC[C@H](NC(=O)COC)[C@H](O)CN[C@H]1CC2(CCC2)Oc2c1cc(CC(C)(C)C)nc2Nc1ccc2c(c1)OCO2" ?
1300

What do we get for "C=CC[C@H](NC(=O)[C@H]1CCC(=O)O1)[C@H](O)CN[C@H]1CC2(CCC2)Oc2ncc(CC(C)(C)C)cc21" ?
1300

What do we get for "CCC[C@H](NC(=O)[C@@H](C)OC)[C@H](O)CN[C@H]1CC2(CCC2)Oc2c1cc(CC(C)(C)C)nc2Cl" ?
3500

What do we get for "C=CC[C@H](NC(=O)COC)[C@H](O)CN[C@H]1CC2(CCC2)Oc2c(-c3nccs3)cc(CC(C)C)cc21" ?
700

What do we get for "C=CC[C@H](NC(=O)COC)[C@H](O)CN[C@H]1CC2(CCC2)Oc2c1cc(CC(C)(C)C)nc2-c1nccn1C" ?
160
